Let's look at some IC50 data for HPK1 (Homo sapiens (Human), UniProt Q92918) that I collected from the literature.

CC(C)n1cc2c(N3C[C@H](C)[C@@H](N)C3)c(NC(=O)c3ccc(=O)n(-c4c(F)cccc4F)n3)ccc2n1
< 0.1 µM

Exercise: Under HPK1 (Homo sapiens (Human), UniProt Q92918): IC50 value of CNCc1cc(C)c(-c2cc3c(-c4ccc5c(c4)OCC4CN(C6CC6)CCN54)n[nH]c3cc2C#N)c(F)c1 (stereo not shown) ?
Solution: ≤ 0.01 µM

Exercise: Under HPK1 (Homo sapiens (Human), UniProt Q92918): IC50 value of COc1cccc(F)c1-n1nc2c(-c3ccc(C4CCN(C)CC4)cc3)n[nH]c2cc1=O ?
Solution: ≤ 0.05 µM

Exercise: Under HPK1 (Homo sapiens (Human), UniProt Q92918): IC50 value of COc1cc2c(cc1Nc1ncc3ccc(-c4ccc5c(c4)CCC(=O)N5)cc3n1)CNCC2 ?
Solution: 0.0969 µM

Exercise: Under HPK1 (Homo sapiens (Human), UniProt Q92918): IC50 value of COc1cc2c(cc1Nc1ncc(C(N)=O)c(NCc3ccccc3C(F)(F)F)n1)CN(C)CC2 ?
Solution: 0.00022 µM

Exercise: Under HPK1 (Homo sapiens (Human), UniProt Q92918): IC50 value of CNCc1cc(C)c(-c2cc3c(-c4ccc5c(c4)OCC4CN(C6CCN(C)CC6)CCN54)n[nH]c3cc2C#N)c(F)c1 (stereo not shown) ?
Solution: ≤ 0.01 µM

Exercise: Under HPK1 (Homo sapiens (Human), UniProt Q92918): IC50 value of CN1CCN(c2ccc(Nc3ccc(-c4c[nH]c5cccnc45)c4c3C(=O)NC4)nc2)CC1 ?
Solution: 0.1 to 1 µM

---

Let's look at some IC50 data for HPK1 (Homo sapiens (Human), UniProt Q92918) that I collected from the literature.

CN(C)Cc1nc(Nc2ccc(-c3cnc4cc(F)ccn34)c3c2C(=O)NC3)ccc1N1CCOC[C@@H](O)C1 (single isomer, unassigned)
< 100 nM

Exercise: Look at this molecule and give its reported IC50. N#Cc1ccncc1-c1ccc(NC(=O)c2ccc(=O)n(-c3c(F)cccc3F)n2)c(N2CCN[C@H](CO)C2)c1
Solution: < 100 nM

Exercise: Look at this molecule and give its reported IC50. CC(C)(N)[C@@H]1CN(c2ccc(Nc3ccc(-c4cnc5cc(F)ccn45)c4c3C(=O)NC4)nc2)CCO1 (single isomer, unassigned)
Solution: < 100 nM

Exercise: Look at this molecule and give its reported IC50. O=C(c1ccc(-c2cc(Nc3ccc(N4CCC5(CCOCC5)CC4)cn3)c3c(=O)[nH]ccc3n2)c(F)c1)N1CCCCC1
Solution: > 1000 nM

Exercise: Look at this molecule and give its reported IC50. Cn1c(C(F)F)nc2c(N3CC[C@H](N)C3)c(NC(=O)c3ccc(=O)n(-c4c(F)cccc4F)n3)ccc21
Solution: < 100 nM

Exercise: Look at this molecule and give its reported IC50. C/C(Nc1cc(C)n([C@H](C)C#N)n1)=C1/C(=O)Nc2cnc(-c3cnccc3C)cc21
Solution: < 50 nM

Exercise: Look at this molecule and give its reported IC50. Cc1csc2c(-c3ncc(Nc4ccc(N5CCC(O)CC5)cn4)c4c3CNC4=O)ccnc12
Solution: < 100 nM

---

Let's look at some IC50 data for HPK1 (Homo sapiens (Human)) that I collected from the literature.

The examples below pair each entry with its known result.
CN1CCN(c2ccc3nc(-c4c(NC5CCOCC5)c5ccsc5[nH]c4=O)[nH]c3c2)CC1
≤ 50 nM
COc1cc2c(cc1Nc1ncc3c(N)c(F)c(-c4cnc5c(c4C)NCCO5)c(Cl)c3n1)CN(C(C)C)CC2
5.76 nM
O=C(c1ccc(-c2cc(Nc3ccc(N4CCC(O)CC4)cn3)c3c(=O)[nH]ccc3n2)c(F)c1)N1CCOCC1
100 to 1000 nM
C[C@@H]1C[C@@H](O)CCN1c1ccc(Nc2ccc(-c3cnc4cnccn34)c3c2C(=O)NC3)nc1
< 100 nM
COc1ccccc1-c1cccc2cnc(Nc3cc4c(nc3C)CCN(C)C4)nc12
0.15 nM
O=C1NCc2c(-c3cnc4cc(F)ccn34)ccc(Nc3ccc(N4CC5CCC(C4)C5O)cn3)c21 (stereo not drawn)
< 100 nM
CNC(=O)c1ccc(-c2cc(Nc3ccc(N4CCC(O)CC4)cn3)c3c(=O)[nH]ccc3n2)c(F)c1
100 to 1000 nM
Cn1c(CC(F)(F)F)nc2c(N3CC[C@@H](N)C3)c(NC(=O)c3ccc(=O)n(-c4c(F)cccc4F)n3)ccc21
< 100 nM
CN(C(=O)C1(C)COC1)c1ccc(-c2cc(Nc3ccc(N4CCC(O)CC4)cn3)c3c(=O)[nH]ccc3n2)c(F)c1
≤ 100 nM
CN[C@H]1CCN(C(=O)c2ccc(-c3c[nH]c4ncc(-c5cc6c(c(OC)c5)CCN(C)C6)nc34)cc2)C1
7 nM

Exercise: Under HPK1 (Homo sapiens (Human)): IC50 value of CN1CCN(c2ccc(Nc3ccc(-c4ccnc(C(C)(C)C#N)c4)c4c3C(=O)NC4)nc2)CC1 ?
Solution: < 1000 nM

Exercise: Under HPK1 (Homo sapiens (Human)): IC50 value of COc1cc2c(cc1Nc1ncc(C(N)=O)c(Nc3ccccc3C3CCOCC3)n1)CN(C)CC2 ?
Solution: 1.09 nM

Exercise: Under HPK1 (Homo sapiens (Human)): IC50 value of Cc1nc2c(N3CC[C@H](N)C3)c(NC(=O)c3ccnn(-c4c(F)cccc4F)c3=O)ccc2n1C1CC1 ?
Solution: 100 to 1000 nM

Exercise: Under HPK1 (Homo sapiens (Human)): IC50 value of COc1cc(-c2cnc3[nH]cc(-c4ccc(C(=O)N(C)C)cc4)c3n2)cc2c1CN(CC(C)(C)O)CC2 ?
Solution: 21 nM

Exercise: Under HPK1 (Homo sapiens (Human)): IC50 value of CC(=O)c1cc(Nc2ccc(N3CCC(O)CC3)cn2)c2c(=O)[nH]ccc2n1 ?
Solution: ≤ 100 nM

Exercise: Under HPK1 (Homo sapiens (Human)): IC50 value of C[C@@H](c1ccc(Nc2ccc(-c3cnc4cc(F)ccn34)c3c2C(=O)NC3)nc1)N1CCOCC1 (single isomer, unassigned) ?
Solution: < 100 nM

Exercise: Under HPK1 (Homo sapiens (Human)): IC50 value of Cc1cccc2c(-c3ncc(Nc4ccc(N5CCN(C)CC5)cn4)c4c3CNC4=O)c[nH]c12 ?
Solution: 100 to 1000 nM

Exercise: Under HPK1 (Homo sapiens (Human)): IC50 value of COc1c(Nc2ncc3c(N)c(F)c(-c4cnc5c(c4C)NCCO5)cc3n2)ccc2c1CCNC(=O)C2 ?
Solution: 487 nM

Exercise: Under HPK1 (Homo sapiens (Human)): IC50 value of Cn1c(C(C)(C)C)nc2c(N3CC[C@H](N)C3)c(NC(=O)c3ccc(=O)n(-c4c(F)cccc4F)n3)ccc21 ?
Solution: < 100 nM

Exercise: Under HPK1 (Homo sapiens (Human)): IC50 value of C/C(Nc1ccn(C)n1)=C1/C(=O)Nc2ccc(-c3cnccc3C)nc21 ?
Solution: < 50 nM

Exercise: Under HPK1 (Homo sapiens (Human)): IC50 value of O=C1NCc2c(-c3cnc4cc(F)ccn34)ccc(Nc3ccc(C4(O)CCOCC4)cn3)c21 ?
Solution: < 100 nM

Exercise: Under HPK1 (Homo sapiens (Human)): IC50 value of CNc1ncc2c(n1)N1C[C@H](C)N=C1C(c1cc(NC(=O)c3cc(C(F)(F)F)ccn3)ccc1C)=C2 ?
Solution: 100 to 10000 nM

---

Let's look at some IC50 data for UniProt Q92918 that I collected from the literature.
Recorded Endpoint: IC50 (nM)

COc1cc2c(cc1Nc1ncc(C(N)=O)c(Nc3cc(C4CC4)nn3C)n1)CN(C)CC2
651

I = Cc1c(-c2cc3nc(Nc4cnc5c(c4)CN(C)CC5)ncc3cc2F)cnc2c1NCCO2
II = Cc1cc(-c2c[nH]c3ncc(-c4cc(C)c5c(c4)CN(CCC(=O)NC[C@@H](C)O)CC5)nc23)ccc1C(=O)N(C)C
Exercise: Between these two entries, I and II , state which has the higher IC50. Give the label of your selection.
Solution: II

---

Let's look at some pIC50 data for HPK1 (Homo sapiens (Human), UniProt Q92918) that I collected from the literature.
pIC50: −log10 of the molar value.

COc1cccc(F)c1-n1nc2c(-c3cnc(N4CCOCC4)nc3)n[nH]c2cc1=O
≥ 7.30
COc1cccc(F)c1-c1ccc2c(c1)/C(=C(\C)Nc1ccc(N3CCN(C4COC4)CC3)nc1)C(=O)N2
> 7.30
COc1cc(CS(C)(=O)=O)ccc1Nc1ncc2c(N)c(F)c(-c3cnc4c(c3C)NCCO4)cc2n1
10.23
CN1CCc2c(cc(-c3cnc(N)c(-n4cc(C(=O)N(C)C)cn4)n3)cc2NC2CC2)C1
7.80
COc1cccc(F)c1-n1nc2c(-c3ccc(N4CCC(N5CCOCC5)CC4)cc3)n[nH]c2cc1=O
≥ 7.30

Exercise: Under HPK1 (Homo sapiens (Human), UniProt Q92918): pIC50 value of O=C1NCc2c(-c3cnc4cc(F)ccn34)ccc(Nc3cccc(O[C@@H]4CCC[C@@H]4O)n3)c21 (stereo in doubt) ?
Solution: 6.00 to 7.00

Exercise: Under HPK1 (Homo sapiens (Human), UniProt Q92918): pIC50 value of Cn1ccc2c(-c3ncc(Nc4ccc(N5CCO[C@H](C(C)(C)O)C5)cn4)c4c3CNC4=O)cccc21 ?
Solution: > 7.00

Exercise: Under HPK1 (Homo sapiens (Human), UniProt Q92918): pIC50 value of O=C(NC1CCCCC1)c1ccc(-c2cc(Nc3ccc(N4CCC(O)CC4)cn3)c3c(=O)[nH]ccc3n2)c(F)c1 ?
Solution: ≥ 7.00
